test-system: LsrK (Salmonella typhimurium, UniProt Q8ZKQ6)
Sequence (Q8ZKQ6 whole entry): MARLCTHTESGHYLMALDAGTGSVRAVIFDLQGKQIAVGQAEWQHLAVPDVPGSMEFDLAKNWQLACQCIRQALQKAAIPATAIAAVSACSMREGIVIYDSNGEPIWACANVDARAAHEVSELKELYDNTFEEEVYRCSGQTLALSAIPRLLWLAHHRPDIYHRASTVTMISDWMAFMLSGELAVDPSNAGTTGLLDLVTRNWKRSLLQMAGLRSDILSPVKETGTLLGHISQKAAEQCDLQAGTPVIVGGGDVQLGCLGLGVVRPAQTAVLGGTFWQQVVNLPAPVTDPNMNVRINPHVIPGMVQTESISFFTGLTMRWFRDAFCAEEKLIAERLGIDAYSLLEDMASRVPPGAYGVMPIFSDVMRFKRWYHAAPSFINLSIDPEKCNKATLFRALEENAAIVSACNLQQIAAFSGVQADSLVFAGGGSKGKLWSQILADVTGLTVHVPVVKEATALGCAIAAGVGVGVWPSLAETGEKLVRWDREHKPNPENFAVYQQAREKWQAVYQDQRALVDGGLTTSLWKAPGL
experiment-description: biochemical
Assay type: biochemical, S. typhimurium
value-type: inhibition at 50 µM (%)
Answers are plain numbers, in %.

# count of solved cases: 3
- molecule: "O=C(/C=C/C=C/c1ccc2c(c1)OCO2)N1CCCCC1"
  inhibition at 50 µM, %: 1
- molecule: "C[C@]12C=CC(=O)C=C1CC[C@H]1[C@@H]3C[C@@H](O)[C@](O)(C(=O)CO)[C@@]3(C)C[C@H](O)[C@@]12F"
  inhibition at 50 µM, %: 11
- molecule: "CC(=O)c1c(O)c(C)c(O)c2c1OC1=CC(=O)C(C(C)=O)C(=O)C12C (stereo not shown)"
  inhibition at 50 µM, %: 204

Now for the molecule whose inhibition at 50 µM we want.
// inhibition at 50 µM value for `O=C(O)c1cn(C2CC2)c2cc(N3CCNCC3)c(F)cc2c1=O` : 1

* * *

test-system: LsrK (Salmonella typhimurium, UniProt Q8ZKQ6)
experiment-description: biochemical
Format: biochemical, S. typhimurium
value-type: inhibition at 50 µM (%)
Give bare numbers, in %.

- molecule: "O=C(O)c1cc(/N=N/c2ccc(S(=O)(=O)Nc3ccccn3)cc2)ccc1O [SULFASALAZINE]"
  inhibition at 50 µM [%]: 5
- molecule: "CC(N)C(=O)OC(C)(C)Cc1ccc(Cl)cc1 (centres unmarked) [ALAPROCLATE]"
  inhibition at 50 µM [%]: 1
- molecule: "CC(=O)OC[C@@]1(O)C[C@@]23CC[C@@H]4c5ccoc5CC[C@@]4(C)[C@@H]2CC[C@@H]1C3 [CAFESTOL ACETATE]"
  inhibition at 50 µM [%]: 1
- molecule: "OC(CCN1CCCCC1)(c1ccccc1)C1CC2C=CC1C2 (centres unmarked) [BIPERIDEN]"
  inhibition at 50 µM [%]: 1
- molecule: "COc1cc2ccc(=O)oc2c(OC)c1OC [FRAXIDIN METHYL ETHER]"
  inhibition at 50 µM [%]: 1
- molecule: "O=C1C(O)=C([C@H]2CC[C@H](c3ccc(Cl)cc3)CC2)C(=O)c2ccccc21 [ATOVAQUONE]"
  inhibition at 50 µM [%]: 1

Hi there! I need inhibition at 50 µM for each item below, if you can.
1. COc1cccc2c1C(=O)c1c(O)c3c(c(O)c1C2=O)C[C@@](O)(C(C)=O)C[C@@H]3O[C@H]1C[C@H](N)[C@H](O)[C@H](C)O1 [DAUNORUBICIN]
2. O=C(C1CCCCC1)N1CC(=O)N2CCc3ccccc3C2C1 (centres unmarked) [PRAZIQUANTEL]

Output:
1: 2; 2: 0

* * *

test-system: LsrK (Salmonella typhimurium)
experiment-description: biochemical
Type: biochemical, S. typhimurium
Where a name gives a salt, the structure may show the parent alone.
value-type: inhibition at 50 µM (%)
Answers are plain numbers, in %.

// known answers, use as guide
- compound: "COC1=CC(=O)C[C@@H](C)[C@]12Oc1c(Cl)c(OC)cc(OC)c1C2=O"
  inhibition at 50 µM, %: 1
- compound: "CC(C)[C@H]1CC[C@H](C(=O)N[C@H](Cc2ccccc2)C(=O)O)CC1 [NATEGLINIDE]"
  inhibition at 50 µM, %: 1
- compound: "CN1CCCN=C1/C=C/c1cccs1 [PYRANTEL PAMOATE]"
  inhibition at 50 µM, %: 101
- compound: "C[C@@]12C(=O)OC(=O)[C@]1(C)[C@H]1CC[C@@H]2O1"
  inhibition at 50 µM, %: 4
- compound: "COc1c(O)cc(O)cc1O"
  inhibition at 50 µM, %: 1

Give measured inhibition at 50 µM for every item shown.
1. CCCCC(=O)Oc1ccccc1C(=O)O [VALERYL SALYCILATE]
2. CC(C)OC(=O)C(C)(C)Oc1ccc(C(=O)c2ccc(Cl)cc2)cc1 [FENOFIBRATE]
3. Cn1nnnc1SCC1=C(C(=O)O)N2C(=O)[C@@H](NC(=O)[C@H](OC=O)c3ccccc3)[C@H]2SC1 [CEFAMANDOLE NAFATE]
4. O=C1c2ccccc2C(=O)c2c(O)c(O)cc(O)c21
5. CC(C)[N+]1(C)[C@@H]2CC[C@H]1C[C@@H](OC(=O)C(CO)c1ccccc1)C2 (stereo partly drawn) [IPRATROPIUM BROMIDE]

Output:
1. 1
2. 1
3. 1
4. 45
5. 0

Need inhibition at 50 µM for each of these compounds.
1. C=C[C@H]1CN2CC[C@H]1C[C@H]2[C@H](OC(=O)OCC)c1ccnc2ccc(OC)cc12 [QUININE ETHYL CARBONATE]
2. O=C(O)[C@]1(O)C[C@@H](O)[C@@H](O)[C@H](O)C1
3. O=C(CCCN1CCN(c2ccccn2)CC1)c1ccc(F)cc1
4. CC1(C)[C@@H](O)CC[C@]2(C)[C@H]3C(=O)C=C4[C@@H]5C[C@@](C)(C(=O)O)CC[C@]5(C)CC[C@@]4(C)[C@]3(C)CC[C@@H]12

Output:
3
0
25
2

Items follow; give inhibition at 50 µM for each.
1. CCN(CC)CCNc1ccc(CO)c2sc3ccccc3c(=O)c12
2. C[C@@H]1O[C@@H]1P(=O)(O)O
3. CC1(C)C(C=C(Cl)Cl)C1C(=O)OC(C#N)c1cccc(Oc2ccccc2)c1 (stereo not drawn)
4. CN1CCC(=C2c3ccccc3CC(=O)c3sccc32)CC1 [KETOTIFEN FUMARATE]
5. CCS(=O)(=O)CCn1c([N+](=O)[O-])cnc1C
6. C[N+]1(C)CCC(OC(=O)C(O)(c2ccccc2)C2CCCC2)C1 (stereo not drawn) [GLYCOPYRROLATE]
7. Nc1nc(=O)c2nc(CNc3ccc(C(=O)N[C@@H](CCC(=O)O)C(=O)O)cc3)cnc2[nH]1

Output:
1. 1
2. 1
3. 3
4. 1
5. 1
6. 0
7. 90

* * *

test-system: LsrK (Salmonella typhimurium, UniProt Q8ZKQ6)
experiment-description: biochemical
Assay type: biochemical, S. typhimurium
Where a name gives a salt, the structure may show the parent alone.
value-type: inhibition at 50 µM

Below, each entry is followed by its recorded inhibition at 50 µM result.
- molecule: "COC(=O)C1=C(C)NC(C)=C(C(=O)OC)C1c1ccccc1[N+](=O)[O-]"
  inhibition at 50 µM: "98%"
- molecule: "N[C@@H](Cc1ccc(O)cc1)C(=O)O"
  inhibition at 50 µM: "1%"
- molecule: "[H]/N=C(\\N/C(=N/[H])Nc1ccc(Cl)cc1)NC(C)C [CHLOROGUANIDE HYDROCHLORIDE]"
  inhibition at 50 µM: "1%"

Provide inhibition at 50 µM values for the following items, in order.
1. OC[C@H]1O[C@H](O[C@]2(CCl)O[C@H](CCl)[C@@H](O)[C@@H]2O)[C@H](O)[C@@H](O)[C@H]1Cl
2. CNC[C@H](O)[C@@H](O)[C@H](O)[C@H](O)CO

Output:
["3%", "1%"]

For each of the molecules below, state inhibition at 50 µM.
1. COc1ccc2c(c1OC)C(=O)O[C@@H]2[C@H]1c2c(cc3c(c2OC)OCO3)CCN1C [NOSCAPINE HYDROCHLORIDE]
2. O=C(/C=C/c1ccc(O)c(O)c1)O[C@H](Cc1ccc(O)c(O)c1)C(=O)O
3. c1ccc2c(c1)CN1CCCC1=N2 [DESOXYPEGANINE HYDROCHLORIDE]

Output:
1. 1%
2. 2%
3. 0%

* * *

Provide the reported inhibition at 50 µM of each item.
test-system: LsrK (Salmonella typhimurium, UniProt Q8ZKQ6)
experiment-description: biochemical
Type: biochemical, S. typhimurium
Counter-ions that a name gives are not always drawn.
One number for each entry, in %.

Some entries whose results are on file:
- compound: "C[C@H]1O[C@@H](n2cc(F)c(=O)[nH]c2=O)[C@H](O)[C@@H]1O [DOXIFLURIDINE]"
  numeric-readout: 1
- compound: "COc1c2c(cc3c1OCO3)CC[N+](C)=C2 [COTARNINE CHLORIDE]"
  numeric-readout: 2

// input: 5 compounds below; output: inhibition at 50 µM for each
1. CCOC(=O)N1CCC(=C2c3ccc(Cl)cc3CCc3cccnc32)CC1 [LORATADINE]
2. C[C@]1(OC(=O)/C=C/c2ccccc2)C[C@@H](O)[C@]2(O)C=CO[C@@H](O[C@@H]3O[C@H](CO)[C@@H](O)[C@H](O)[C@H]3O)[C@@H]21 [HARPAGOSIDE]
3. Cc1ccc(N(CC2=NCCN2)c2cccc(O)c2)cc1 [PHENTOLAMINE HYDROCHLORIDE]
4. CCOC(=O)[N-]c1cn(N2CCOCC2)n[o+]1 [MOLSIDOMINE]
5. O=C(O)/C=C/C=C/c1ccc2c(c1)OCO2 [PIPERIC ACID]

Output:
1: 2; 2: 108; 3: 0; 4: 0; 5: 0

Batch request: inhibition at 50 µM per item, same order as input.
1. NCCc1c[nH]cn1 [HISTAMINE DIHYDROCHLORIDE]
2. COc1ccc2c(C)cc(=O)oc2c1 [H[…] ETHER]
3. Cc1c(C(=O)O)c(O)cc2c1C(=O)c1c(O)c([C@@H]3O[C@H](CO)[C@@H](O)[C@H](O)[C@H]3O)c(O)c(O)c1C2=O [CARMINIC ACID]

Output:
1. 3
2. 0
3. 6
